# maps each entry to its % change of MS signal compared to control sample
Target: CK2a1 (Homo sapiens (Human), UniProt P68400)
Sequence (P68400 whole entry): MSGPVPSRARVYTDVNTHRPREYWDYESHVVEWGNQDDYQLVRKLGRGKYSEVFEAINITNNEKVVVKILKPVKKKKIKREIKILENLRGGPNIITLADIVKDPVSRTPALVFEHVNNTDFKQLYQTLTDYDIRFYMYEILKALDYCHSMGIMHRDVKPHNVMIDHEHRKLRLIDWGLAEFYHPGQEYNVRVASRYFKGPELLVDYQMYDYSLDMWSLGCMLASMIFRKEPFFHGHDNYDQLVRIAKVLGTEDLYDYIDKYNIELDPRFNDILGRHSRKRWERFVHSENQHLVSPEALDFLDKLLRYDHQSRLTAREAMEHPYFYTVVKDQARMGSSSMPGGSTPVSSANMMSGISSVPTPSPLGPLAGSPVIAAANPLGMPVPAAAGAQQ
Assay: KINATIV assay
Type: cell-based
Details: 1 μM, 90 minutes, BCWM.1 cells
Write the number in % without appending the unit.

Known results for compounds:
{"columns": ["compound", "measurement"],
 "data": [
  ["C=CC(=O)N1CC[C@@H](Nc2nccc(Nc3ncc(C(=O)Nc4c(C)cccc4C)s3)n2)C1", 24.6],
  ["C=CC(=O)N1CCC(CNc2nccc(Nc3ncc(C(=O)Nc4c(C)cccc4C)s3)n2)C1 (racemic)", 13.9],
  ["C=CC(=O)N1CCCCC(Nc2nccc(Nc3ncc(C(=O)Nc4c(C)cccc4C)s3)n2)C1 (stereo not shown)", 14.3]
]}

Field: next compound
Specify % change of MS signal compared to control sample for C=CC(=O)N1CCC(Cn2ccc(Nc3ncc(C(=O)Nc4c(C)cccc4Cl)s3)n2)C1 (stereo not shown) and stop. 24.7

###

Target: UniProt P50750
Assay: KINATIV assay
Assay type: cell-based
Details: 1 μM, 90 minutes, BCWM.1 cells
# maps each entry to its % change of MS signal compared to control sample
Write the number in % without appending the unit.

Known results for molecules:
{"columns": ["molecule", "quantity-unit", "measurement"],
 "data": [
  ["C=CC(=O)N1CCC(Cn2ccc(Nc3ncc(C(=O)Nc4c(C)cccc4Cl)s3)n2)C1 (stereo not shown)", "%", "−57.0"],
  ["C=CC(=O)N1CCC(CNc2nccc(Nc3ncc(C(=O)Nc4c(C)cccc4C)s3)n2)C1 (racemic)", "%", "−5.2"],
  ["C=CC(=O)N1CCCCC(Nc2nccc(Nc3ncc(C(=O)Nc4c(C)cccc4C)s3)n2)C1 (stereo not shown)", "%", "−37.0"]
]}

Field: next molecule
Send back UniProt P50750 % change of MS signal compared to control sample of C=CC(=O)N1CC[C@@H](Nc2nccc(Nc3ncc(C(=O)Nc4c(C)cccc4C)s3)n2)C1 only. −41.9

###

Target: UniProt P11802
Sequence (P11802 2-303): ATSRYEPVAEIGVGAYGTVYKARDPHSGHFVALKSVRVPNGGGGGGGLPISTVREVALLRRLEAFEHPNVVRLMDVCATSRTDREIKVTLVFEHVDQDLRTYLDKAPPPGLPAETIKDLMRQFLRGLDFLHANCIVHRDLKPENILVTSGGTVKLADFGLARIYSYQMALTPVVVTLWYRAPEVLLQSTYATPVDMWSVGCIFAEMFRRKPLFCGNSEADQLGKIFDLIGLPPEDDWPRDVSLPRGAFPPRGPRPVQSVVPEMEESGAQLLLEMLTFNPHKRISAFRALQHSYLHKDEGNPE
Test: KINATIV assay
Type: cell-based
Conditions: 1 μM, 90 minutes, BCWM.1 cells
# maps each entry to its % change of MS signal compared to control sample
Write the number in % without appending the unit.

{"columns": ["molecule", "measurement"],
 "data": [
  ["C=CC(=O)N1CCCCC(Nc2nccc(Nc3ncc(C(=O)Nc4c(C)cccc4C)s3)n2)C1 (stereo not shown)", 16.7]
]}

Specify % change of MS signal compared to control sample for C=CC(=O)N1CCC(CNc2nccc(Nc3ncc(C(=O)Nc4c(C)cccc4C)s3)n2)C1 (racemic) and stop. 6.1

Specify % change of MS signal compared to control sample for C=CC(=O)N1CC[C@@H](Nc2nccc(Nc3ncc(C(=O)Nc4c(C)cccc4C)s3)n2)C1 and stop. 6.8

Specify % change of MS signal compared to control sample for C=CC(=O)N1CCC(Cn2ccc(Nc3ncc(C(=O)Nc4c(C)cccc4Cl)s3)n2)C1 (stereo not shown) and stop. 2.2

###

Target: p38b (Homo sapiens (Human))
Sequence (Q15759 whole entry): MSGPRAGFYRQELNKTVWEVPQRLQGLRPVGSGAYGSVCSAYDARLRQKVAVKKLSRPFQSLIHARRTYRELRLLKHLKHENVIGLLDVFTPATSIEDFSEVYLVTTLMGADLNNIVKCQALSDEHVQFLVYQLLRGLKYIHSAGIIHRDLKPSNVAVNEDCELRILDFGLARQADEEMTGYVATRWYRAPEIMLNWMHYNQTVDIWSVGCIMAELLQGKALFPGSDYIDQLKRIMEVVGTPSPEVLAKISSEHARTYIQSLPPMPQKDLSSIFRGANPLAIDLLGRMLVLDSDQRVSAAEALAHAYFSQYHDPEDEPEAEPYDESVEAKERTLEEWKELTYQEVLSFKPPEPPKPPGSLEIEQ
Assay: KINATIV assay
Format: cell-based
Details: 1 μM, 90 minutes, BCWM.1 cells
metric: % change of MS signal compared to control sample (%)
Write the number in % without appending the unit.

Known results for compounds:
{"columns": ["compound", "quantity-unit", "measurement"],
 "data": [
  ["C=CC(=O)N1CCC(CNc2nccc(Nc3ncc(C(=O)Nc4c(C)cccc4C)s3)n2)C1 (racemic)", "%", 12.0],
  ["C=CC(=O)N1CC[C@@H](Nc2nccc(Nc3ncc(C(=O)Nc4c(C)cccc4C)s3)n2)C1", "%", "−29.6"],
  ["C=CC(=O)N1CCCCC(Nc2nccc(Nc3ncc(C(=O)Nc4c(C)cccc4C)s3)n2)C1 (stereo not shown)", "%", "−1.5"]
]}

Field: next compound
Specify % change of MS signal compared to control sample for C=CC(=O)N1CCC(Cn2ccc(Nc3ncc(C(=O)Nc4c(C)cccc4Cl)s3)n2)C1 (stereo not shown) and stop. −19.0

###

Biological target: HCK (Homo sapiens (Human), UniProt P08631)
Sequence (P08631 whole entry): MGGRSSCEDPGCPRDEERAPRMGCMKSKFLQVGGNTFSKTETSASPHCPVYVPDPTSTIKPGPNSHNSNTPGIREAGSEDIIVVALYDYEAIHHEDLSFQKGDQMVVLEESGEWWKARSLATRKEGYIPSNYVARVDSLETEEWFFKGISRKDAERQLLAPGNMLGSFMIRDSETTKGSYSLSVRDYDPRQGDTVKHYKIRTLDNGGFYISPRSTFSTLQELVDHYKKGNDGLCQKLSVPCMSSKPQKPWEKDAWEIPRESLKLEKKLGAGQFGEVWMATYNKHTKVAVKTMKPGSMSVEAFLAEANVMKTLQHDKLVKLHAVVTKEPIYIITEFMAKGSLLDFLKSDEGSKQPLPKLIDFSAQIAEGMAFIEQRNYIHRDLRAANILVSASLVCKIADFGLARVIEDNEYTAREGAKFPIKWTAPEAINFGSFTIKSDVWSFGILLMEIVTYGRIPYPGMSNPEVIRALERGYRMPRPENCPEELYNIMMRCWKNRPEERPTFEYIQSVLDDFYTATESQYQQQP
# maps each entry to its IC50

{"columns": ["compound", "IC50"],
 "data": [
  ["C=CC(=O)N1CCCCC(Nc2nccc(Nc3ncc(C(=O)Nc4c(C)cccc4C)s3)n2)C1 (stereo not drawn) [Compound I-7]", "< 0.495 nM"]
]}

Send back HCK (Homo sapiens (Human), UniProt P08631) IC50 of C=CC(=O)N1CCC(CNc2nccc(Nc3ncc(C(=O)Nc4c(C)cccc4C)s3)n2)C1 (stereo not drawn) [Compound I-8] only. < 0.495 nM

Send back HCK (Homo sapiens (Human), UniProt P08631) IC50 of CCC(=O)N1CC[C@H](Nc2nccc(Nc3ncc(C(=O)Nc4c(C)cccc4C)s3)n2)C1 [Compound I-9] only. < 0.495 nM

###

Biological target: PAN3 (Homo sapiens (Human), UniProt Q58A45)
Sequence (Q58A45 whole entry): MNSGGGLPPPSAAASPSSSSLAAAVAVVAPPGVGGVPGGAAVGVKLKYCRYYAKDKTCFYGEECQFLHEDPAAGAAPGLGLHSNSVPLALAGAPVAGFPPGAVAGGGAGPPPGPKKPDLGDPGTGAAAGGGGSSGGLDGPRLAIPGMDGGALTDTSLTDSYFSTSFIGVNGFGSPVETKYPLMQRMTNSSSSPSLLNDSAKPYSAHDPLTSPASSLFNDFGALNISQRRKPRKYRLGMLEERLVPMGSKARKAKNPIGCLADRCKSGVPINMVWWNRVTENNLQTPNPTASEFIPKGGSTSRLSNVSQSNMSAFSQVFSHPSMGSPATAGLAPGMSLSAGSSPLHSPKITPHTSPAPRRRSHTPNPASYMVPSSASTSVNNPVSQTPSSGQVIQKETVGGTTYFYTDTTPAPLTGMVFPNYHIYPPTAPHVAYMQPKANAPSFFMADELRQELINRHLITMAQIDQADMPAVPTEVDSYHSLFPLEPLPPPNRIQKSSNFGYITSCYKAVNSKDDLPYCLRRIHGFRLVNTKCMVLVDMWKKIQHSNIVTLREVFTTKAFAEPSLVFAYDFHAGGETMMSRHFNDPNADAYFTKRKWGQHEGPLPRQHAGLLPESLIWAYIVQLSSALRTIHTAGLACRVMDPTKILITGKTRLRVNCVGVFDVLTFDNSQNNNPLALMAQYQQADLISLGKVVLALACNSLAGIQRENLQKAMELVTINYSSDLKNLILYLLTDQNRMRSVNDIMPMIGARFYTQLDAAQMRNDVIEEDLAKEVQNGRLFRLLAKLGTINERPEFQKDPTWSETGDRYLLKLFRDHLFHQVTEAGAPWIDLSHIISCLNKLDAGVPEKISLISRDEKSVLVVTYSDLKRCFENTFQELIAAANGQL
Assay: KINATIV assay
Format: cell-based
Conditions: 1 μM, 90 minutes, BCWM.1 cells
# maps each entry to its % change of MS signal compared to control sample
Write the number in % without appending the unit.

Specify % change of MS signal compared to control sample for C=CC(=O)N1CCC(Cn2ccc(Nc3ncc(C(=O)Nc4c(C)cccc4Cl)s3)n2)C1 (stereo not shown) [II-1] and stop. −7.0

Specify % change of MS signal compared to control sample for C=CC(=O)N1CCCCC(Nc2nccc(Nc3ncc(C(=O)Nc4c(C)cccc4C)s3)n2)C1 (stereo not shown) [Example I-7] and stop. −0.2

Specify % change of MS signal compared to control sample for C=CC(=O)N1CCC(CNc2nccc(Nc3ncc(C(=O)Nc4c(C)cccc4C)s3)n2)C1 (racemic) [Example I-8] and stop. 18.3

Specify % change of MS signal compared to control sample for C=CC(=O)N1CC[C@@H](Nc2nccc(Nc3ncc(C(=O)Nc4c(C)cccc4C)s3)n2)C1 [Example I-4] and stop. −29.0

###

# maps each entry to its % change of MS signal compared to control sample
Molecular target: MSK1 domain1 (Homo sapiens (Human), UniProt O75582)
Sequence (O75582 whole entry, the tested form may be a part): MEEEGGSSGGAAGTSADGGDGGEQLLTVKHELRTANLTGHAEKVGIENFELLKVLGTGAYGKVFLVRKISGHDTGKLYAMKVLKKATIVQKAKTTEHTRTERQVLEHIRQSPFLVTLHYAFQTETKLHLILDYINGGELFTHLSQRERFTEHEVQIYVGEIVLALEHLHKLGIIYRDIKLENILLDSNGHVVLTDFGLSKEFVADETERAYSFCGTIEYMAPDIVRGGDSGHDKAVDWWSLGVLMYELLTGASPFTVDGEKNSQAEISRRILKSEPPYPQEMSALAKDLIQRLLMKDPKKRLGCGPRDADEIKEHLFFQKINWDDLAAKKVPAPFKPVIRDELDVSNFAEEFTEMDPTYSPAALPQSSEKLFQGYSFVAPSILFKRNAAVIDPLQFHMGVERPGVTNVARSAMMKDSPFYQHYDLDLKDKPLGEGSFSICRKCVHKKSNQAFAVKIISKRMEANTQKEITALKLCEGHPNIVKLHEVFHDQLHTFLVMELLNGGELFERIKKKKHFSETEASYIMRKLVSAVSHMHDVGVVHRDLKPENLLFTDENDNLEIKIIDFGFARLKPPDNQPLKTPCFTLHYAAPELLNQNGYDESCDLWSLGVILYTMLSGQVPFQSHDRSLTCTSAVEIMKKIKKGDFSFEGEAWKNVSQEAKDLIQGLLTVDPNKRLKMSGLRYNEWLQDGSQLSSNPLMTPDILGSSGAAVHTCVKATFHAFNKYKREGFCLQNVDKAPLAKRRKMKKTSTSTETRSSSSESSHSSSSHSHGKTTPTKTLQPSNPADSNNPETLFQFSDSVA
Test: KINATIV assay
Format: cell-based
Settings: 1 μM, 90 minutes, BCWM.1 cells
Write the number in % without appending the unit.

Known results for compounds:
{"columns": ["compound", "measurement"],
 "data": [
  ["C=CC(=O)N1CCC(Cn2ccc(Nc3ncc(C(=O)Nc4c(C)cccc4Cl)s3)n2)C1 (stereo not shown)", "−35.0"],
  ["C=CC(=O)N1CCCCC(Nc2nccc(Nc3ncc(C(=O)Nc4c(C)cccc4C)s3)n2)C1 (stereo not shown)", "−40.5"],
  ["C=CC(=O)N1CCC(CNc2nccc(Nc3ncc(C(=O)Nc4c(C)cccc4C)s3)n2)C1 (racemic)", "−45.5"]
]}

Send back MSK1 domain1 (Homo sapiens (Human), UniProt O75582) % change of MS signal compared to control sample of C=CC(=O)N1CC[C@@H](Nc2nccc(Nc3ncc(C(=O)Nc4c(C)cccc4C)s3)n2)C1 only. −15.8

###

Biological target: BRAF (Homo sapiens (Human), UniProt P15056)
Sequence (P15056 whole entry): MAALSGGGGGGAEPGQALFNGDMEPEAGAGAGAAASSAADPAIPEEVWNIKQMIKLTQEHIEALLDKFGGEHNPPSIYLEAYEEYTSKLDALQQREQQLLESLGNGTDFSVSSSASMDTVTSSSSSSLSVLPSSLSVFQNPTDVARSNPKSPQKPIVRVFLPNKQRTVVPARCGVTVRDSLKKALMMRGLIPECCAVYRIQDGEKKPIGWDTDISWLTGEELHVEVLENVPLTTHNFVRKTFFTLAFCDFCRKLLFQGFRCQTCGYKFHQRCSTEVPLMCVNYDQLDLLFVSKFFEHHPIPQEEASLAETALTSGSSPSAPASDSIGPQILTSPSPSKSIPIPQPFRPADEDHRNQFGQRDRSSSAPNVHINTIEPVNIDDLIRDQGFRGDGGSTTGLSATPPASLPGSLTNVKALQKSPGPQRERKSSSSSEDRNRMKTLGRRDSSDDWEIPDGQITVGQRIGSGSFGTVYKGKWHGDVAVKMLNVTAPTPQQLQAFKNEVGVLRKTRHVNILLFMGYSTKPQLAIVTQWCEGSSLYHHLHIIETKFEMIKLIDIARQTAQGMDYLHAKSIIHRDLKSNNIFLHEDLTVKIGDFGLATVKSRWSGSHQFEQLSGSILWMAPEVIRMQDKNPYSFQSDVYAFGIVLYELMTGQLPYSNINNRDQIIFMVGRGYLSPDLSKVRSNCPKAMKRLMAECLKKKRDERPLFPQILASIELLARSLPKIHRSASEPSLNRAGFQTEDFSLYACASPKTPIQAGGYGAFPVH
Assay: KINATIV assay
Format: cell-based
Details: 1 μM, 90 minutes, BCWM.1 cells
Procedure: The cells were harvested and lysed. The lysates were directly labeled with an ATP-biotin probe. Bound kinases were identified and quantitated by ACTIVX as described in Patricelli et al., Biochemistry, 2007, 46(2): 350-358. The compounds were tested in duplicates against duplicate or quadruplicate control samples.
# maps each entry to its % change of MS signal compared to control sample
Write the number in % without appending the unit.

{"columns": ["molecule", "measurement"],
 "data": [
  ["C=CC(=O)N1CCC(Cn2ccc(Nc3ncc(C(=O)Nc4c(C)cccc4Cl)s3)n2)C1 (stereo not shown) [II-1]", 6.9],
  ["C=CC(=O)N1CCCCC(Nc2nccc(Nc3ncc(C(=O)Nc4c(C)cccc4C)s3)n2)C1 (stereo not shown) [Example I-7]", 21.7],
  ["C=CC(=O)N1CCC(CNc2nccc(Nc3ncc(C(=O)Nc4c(C)cccc4C)s3)n2)C1 (racemic) [Example I-8]", 11.1]
]}

Field: next molecule
Specify % change of MS signal compared to control sample for C=CC(=O)N1CC[C@@H](Nc2nccc(Nc3ncc(C(=O)Nc4c(C)cccc4C)s3)n2)C1 [Example I-4] and stop. 17.8

###

Target: OSR1 (Homo sapiens (Human), UniProt O95747)
Sequence (O95747 whole entry): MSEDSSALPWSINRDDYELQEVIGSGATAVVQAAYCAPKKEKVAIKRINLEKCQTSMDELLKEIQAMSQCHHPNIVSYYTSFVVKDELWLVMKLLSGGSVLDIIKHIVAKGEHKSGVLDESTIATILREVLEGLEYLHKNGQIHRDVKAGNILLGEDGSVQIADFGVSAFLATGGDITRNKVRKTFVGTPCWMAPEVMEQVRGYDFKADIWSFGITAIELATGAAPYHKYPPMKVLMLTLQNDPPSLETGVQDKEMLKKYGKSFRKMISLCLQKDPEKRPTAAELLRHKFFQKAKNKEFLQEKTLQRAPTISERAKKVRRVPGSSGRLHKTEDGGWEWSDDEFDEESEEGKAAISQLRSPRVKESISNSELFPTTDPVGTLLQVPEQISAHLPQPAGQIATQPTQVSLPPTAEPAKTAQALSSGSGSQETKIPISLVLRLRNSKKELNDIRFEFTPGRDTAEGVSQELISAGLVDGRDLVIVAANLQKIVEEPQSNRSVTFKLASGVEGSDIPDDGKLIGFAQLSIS
Assay: KINATIV assay
Format: cell-based
Settings: 1 μM, 90 minutes, BCWM.1 cells
Experimental: The cells were harvested and lysed. The lysates were directly labeled with an ATP-biotin probe. Bound kinases were identified and quantitated by ACTIVX as described in Patricelli et al., Biochemistry, 2007, 46(2): 350-358. The compounds were tested in duplicates against duplicate or quadruplicate control samples.
# maps each entry to its % change of MS signal compared to control sample
State the result as a value with its unit after it.

Known results for compounds:
{"columns": ["compound", "measured-target", "measurement"],
 "data": [
  ["C=CC(=O)N1CCC(Cn2ccc(Nc3ncc(C(=O)Nc4c(C)cccc4Cl)s3)n2)C1 (stereo not shown)", "OSR1 (Homo sapiens (Human), UniProt O95747)", "16.4%"],
  ["C=CC(=O)N1CCCCC(Nc2nccc(Nc3ncc(C(=O)Nc4c(C)cccc4C)s3)n2)C1 (stereo not shown)", "OSR1 (Homo sapiens (Human), UniProt O95747)", "22.0%"],
  ["C=CC(=O)N1CCC(CNc2nccc(Nc3ncc(C(=O)Nc4c(C)cccc4C)s3)n2)C1 (racemic)", "OSR1 (Homo sapiens (Human), UniProt O95747)", "27.9%"]
]}

Specify % change of MS signal compared to control sample for C=CC(=O)N1CC[C@@H](Nc2nccc(Nc3ncc(C(=O)Nc4c(C)cccc4C)s3)n2)C1 and stop. 26.7%
